Listing: Growth Percent of selected compounds
# Test system: M14
# assayProcedure: NCI one-dose SRB assay (Melanoma)
# Type: cell-based, human
# conditionDescription: M14, 1.00E-5 Molar
Give just the numeric value; % need not be written.

Take a look at these entries with their results.
>>> result("COc1ccc(-c2ccc(NC(=O)Nc3ccc(Cl)c(C(F)(F)F)c3)c(C)n2)cc1")
31.87
>>> result("COc1ccc(-c2ccc(NC(=O)Nc3cccc(C(F)(F)F)c3)c(C)n2)cc1")
37.25
>>> result("COc1ccc(-c2ccc(NC(=O)Nc3ccc(Cl)cc3)c(C)n2)cc1")
86.55
>>> result("COc1ccc(NC(=O)Nc2ccc(-c3ccc(OC)c(OC)c3)nc2C)cc1")
72.14
>>> result("COc1cccc(NC(=O)Nc2ccc(-c3ccc(OC)c(OC)c3)nc2C)c1")
90.93

Ask | Fetch value of Growth Percent on M14 for COc1ccc(-c2ccc(NC(=O)Nc3cccc(Cl)c3)c(C)n2)cc1OC .
Reply | 50.80

Ask | # return Growth Percent for COc1ccc(-c2ccc(NC(=O)Nc3cccc(C(F)(F)F)c3)c(C)n2)cc1OC , test system: M14
Reply | 31.21

---

# Test system: UACC-257
# assayProcedure: NCI one-dose SRB assay (Melanoma)
# Type: cell-based, human
# conditionDescription: Homo sapiens; UACC-257, 10 μM; read-out: Percentage growth inhibition (GI%)
readoutLabel: inhibition at 10 µM (%)
Dear colleague, please return just the value in %, with no unit written.

>>> result("COc1ccc(-c2ccc(NC(=O)Nc3cccc(C(F)(F)F)c3)c(C)n2)cc1")
39
>>> result("COc1ccc(-c2ccc(NC(=O)Nc3cccc(C(F)(F)F)c3)c(C)n2)cc1OC")
19
>>> result("COc1ccc(-c2ccc(NC(=O)Nc3cccc(Cl)c3)c(C)n2)cc1OC")
29
>>> result("COc1ccc(NC(=O)Nc2ccc(-c3ccc(OC)c(OC)c3)nc2C)cc1")
45
>>> result("COc1ccc(-c2ccc(NC(=O)Nc3ccc(Cl)c(C(F)(F)F)c3)c(C)n2)cc1")
43

--- query ---
Ask | Give reported inhibition at 10 µM for COc1ccc(-c2ccc(NC(=O)Nc3ccc(Cl)cc3)c(C)n2)cc1 (UACC-257)
Reply | 22

---

# System: OVCAR-5
# assayProcedure: NCI one-dose SRB assay (Ovarian Cancer)
# Format: cell-based, human
# conditionDescription: OVCAR-5, 1.00E-5 Molar
readoutLabel: Growth Percent (%)
# value in %; strip the unit string

Please review the following examples before continuing.
>>> result("COc1ccc(-c2ccc(NC(=O)Nc3cccc(C(F)(F)F)c3)c(C)n2)cc1OC")
94.03
>>> result("COc1cccc(NC(=O)Nc2ccc(-c3ccc(OC)c(OC)c3)nc2C)c1")
104.54
>>> result("COc1ccc(-c2ccc(NC(=O)Nc3ccc(Cl)cc3)c(C)n2)cc1")
93.01
>>> result("COc1ccc(-c2ccc(NC(=O)Nc3cccc(C(F)(F)F)c3)c(C)n2)cc1")
83.05
>>> result("COc1ccc(-c2ccc(NC(=O)Nc3ccc(Cl)c(C(F)(F)F)c3)c(C)n2)cc1")
89.11
>>> result("COc1ccc(-c2ccc(NC(=O)Nc3cccc(Cl)c3)c(C)n2)cc1OC")
88.21

Ask | Query Growth Percent for COc1ccc(NC(=O)Nc2ccc(-c3ccc(OC)c(OC)c3)nc2C)cc1
Reply | 98.04

---

As shown below, each of these compounds has a reported Growth Percent value.
# Tested on: MOLT-4
# assayProcedure: NCI one-dose SRB assay (Leukemia)
# Assay type: cell-based, human
# conditionDescription: MOLT-4, 1.00E-5 Molar
Field: numeric (%). Do not append units.

Ask | Please report Growth Percent for the following compound: COc1ccc(NC(=O)Nc2ccc(-c3ccc(OC)c(OC)c3)nc2C)cc1
Reply | 85.62

Ask | Tell me measured Growth Percent for COc1cccc(NC(=O)Nc2ccc(-c3ccc(OC)c(OC)c3)nc2C)c1 please.
Reply | 65.34

Ask | For the compound COc1ccc(-c2ccc(NC(=O)Nc3ccc(Cl)c(C(F)(F)F)c3)c(C)n2)cc1 , give its measured Growth Percent value.
Reply | 24.60

Ask | Fill in reported Growth Percent for this entry: COc1ccc(-c2ccc(NC(=O)Nc3cccc(C(F)(F)F)c3)c(C)n2)cc1
Reply | 33.74

Ask | Identify measured Growth Percent corresponding to COc1ccc(-c2ccc(NC(=O)Nc3cccc(C(F)(F)F)c3)c(C)n2)cc1OC
Reply | 39.58

Ask | Specify reported Growth Percent for the compound shown: COc1ccc(-c2ccc(NC(=O)Nc3ccc(Cl)cc3)c(C)n2)cc1
Reply | 72.42

Ask | Specify Growth Percent for COc1ccc(-c2ccc(NC(=O)Nc3cccc(Cl)c3)c(C)n2)cc1OC and stop.
Reply | 42.64

---

# Tested on: MCF7
# assayProcedure: NCI one-dose SRB assay (Breast Cancer)
# Type: cell-based, human
# conditionDescription: Homo sapiens; MCF7, 10 μM; read-out: Percentage growth inhibition (GI%)
Classify by measured inhibition at 10 µM: condition met if it is equal to or exceeds 40%, condition not met if it is smaller.

>>> classname("COc1cccc(NC(=O)Nc2ccc(-c3ccc(OC)c(OC)c3)nc2C)c1 [Compound 8m]")
"condition not met"
>>> classname("COc1ccc(NC(=O)Nc2ccc(-c3ccc(OC)c(OC)c3)nc2C)cc1 [Compound 8n]")
"condition not met"
>>> classname("COc1ccc(-c2ccc(NC(=O)Nc3cccc(C(F)(F)F)c3)c(C)n2)cc1OC [Compound 8i]")
"condition not met"
>>> classname("COc1ccc(-c2ccc(NC(=O)Nc3cccc(C(F)(F)F)c3)c(C)n2)cc1 [Compound 8b]")
"condition met"
>>> classname("COc1ccc(-c2ccc(NC(=O)Nc3ccc(Cl)c(C(F)(F)F)c3)c(C)n2)cc1 [Compound 8e]")
"condition met"
>>> classname("COc1ccc(-c2ccc(NC(=O)Nc3ccc(Cl)cc3)c(C)n2)cc1 [Compound 8d]")
"condition not met"

Ask | Record COc1ccc(-c2ccc(NC(=O)Nc3cccc(Cl)c3)c(C)n2)cc1OC [Compound 8j] ; criterion: inhibition at 10 µM no lower than 40%. Met?
Reply | condition not met

---

# System: SW-620
# assayProcedure: NCI one-dose SRB assay (Colon Cancer)
# Assay type: cell-based, human
# conditionDescription: SW-620, 1.00E-5 Molar
# Lookup of reported Growth Percent keyed by entry
Report the figure in % without appending any unit label.

These solved cases illustrate the format of a correct answer.
>>> result("COc1ccc(-c2ccc(NC(=O)Nc3ccc(Cl)cc3)c(C)n2)cc1")
77.06
>>> result("COc1ccc(NC(=O)Nc2ccc(-c3ccc(OC)c(OC)c3)nc2C)cc1")
64.84
>>> result("COc1ccc(-c2ccc(NC(=O)Nc3cccc(C(F)(F)F)c3)c(C)n2)cc1")
81.01
>>> result("COc1ccc(-c2ccc(NC(=O)Nc3cccc(Cl)c3)c(C)n2)cc1OC")
98.24
>>> result("COc1ccc(-c2ccc(NC(=O)Nc3cccc(C(F)(F)F)c3)c(C)n2)cc1OC")
91.19
>>> result("COc1ccc(-c2ccc(NC(=O)Nc3ccc(Cl)c(C(F)(F)F)c3)c(C)n2)cc1")
67.04

Ask | Write down Growth Percent measured for item COc1cccc(NC(=O)Nc2ccc(-c3ccc(OC)c(OC)c3)nc2C)c1
Reply | 101.68

---

# Test system: A549/ATCC
# assayProcedure: NCI one-dose SRB assay (Non-Small Cell Lung Cancer)
# Type: cell-based, human
# conditionDescription: Homo sapiens, 10 μM, read-out: Percentage growth inhibition (GI%)
Measured inhibition at 10 µM, listed per entry.
Please give a number only; it is taken to be in %.

Field: example entries. Status: answers known.
>>> result("COc1ccc(NC(=O)Nc2ccc(-c3ccc(OC)c(OC)c3)nc2C)cc1")
43
>>> result("COc1ccc(-c2ccc(NC(=O)Nc3ccc(Cl)cc3)c(C)n2)cc1")
32

# context switch: different compound, same inhibition at 10 µM
Ask | Please look at this compound and report its inhibition at 10 µM: COc1ccc(-c2ccc(NC(=O)Nc3cccc(C(F)(F)F)c3)c(C)n2)cc1OC
Reply | 40

---

Each entry below lists one item and its recorded inhibition at 10 µM value.
# System: T-47D
# assayProcedure: NCI one-dose SRB assay (Breast Cancer)
# Assay type: cell-based, human
# conditionDescription: Homo sapiens, T47D, 10 μM, read-out: Percentage growth inhibition (GI%)
Express it in %; write the number only.

Example cases with answers are listed next.
>>> result("COc1ccc(-c2ccc(NC(=O)Nc3ccc(Cl)cc3)c(C)n2)cc1")
28
>>> result("COc1ccc(-c2ccc(NC(=O)Nc3cccc(C(F)(F)F)c3)c(C)n2)cc1OC")
47

Ask | Answer with reported inhibition at 10 µM of COc1cccc(NC(=O)Nc2ccc(-c3ccc(OC)c(OC)c3)nc2C)c1
Reply | 19
